Source: ChEMBL document CHEMBL1649420

- Experimental target: UniProtKB O42713
- Sequence (O42713 whole entry): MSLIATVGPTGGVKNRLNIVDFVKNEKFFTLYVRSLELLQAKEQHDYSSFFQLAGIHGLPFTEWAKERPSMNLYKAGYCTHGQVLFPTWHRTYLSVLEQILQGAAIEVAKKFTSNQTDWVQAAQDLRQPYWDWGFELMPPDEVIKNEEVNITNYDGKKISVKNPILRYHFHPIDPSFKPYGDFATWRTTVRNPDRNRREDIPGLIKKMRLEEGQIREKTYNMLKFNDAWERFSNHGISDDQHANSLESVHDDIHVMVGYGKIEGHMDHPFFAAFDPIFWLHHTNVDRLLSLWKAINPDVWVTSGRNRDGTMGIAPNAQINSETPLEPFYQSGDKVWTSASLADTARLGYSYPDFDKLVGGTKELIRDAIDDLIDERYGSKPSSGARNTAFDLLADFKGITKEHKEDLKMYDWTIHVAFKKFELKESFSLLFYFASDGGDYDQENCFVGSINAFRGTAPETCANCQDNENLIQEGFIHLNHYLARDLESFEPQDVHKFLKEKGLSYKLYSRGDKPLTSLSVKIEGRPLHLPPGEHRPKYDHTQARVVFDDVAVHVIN
- Cond: at 1 mM
As shown below, each of these compounds has a reported inhibition value.
Response body: numeric value in %, unit text excluded.

Compound | inhibition, %
Cc1cc(=O)[nH]c(=S)[nH]1 | 31
NC(=O)c1ccccc1O | -8
[O-][n+]1cccc2cccc(O)c21 | 29
Cc1c(O)c(=S)ccn1C | 100
O=C(O)c1ccc(O)cc1O | 91

What value of inhibition has been reported for the following compound? O=c1cc(CCl)occ1O
94

Name the reported inhibition value associated with the compound CC(C)c1cccc(=O)c(O)c1
54

What measured inhibition goes with Cc1occc(=S)c1O ?
102

What value of inhibition has been reported for the following compound? O=C(O)c1cccc(O)n1
95

Entry under review: Cc1cc(=O)c(O)c(CO)o1 . Reported inhibition?
11

Recorded inhibition for O=c1ccocc1O , please?
38

# get_value(readout='inhibition', item= Cn1cccc(O)c1=S )
93

Can you share its inhibition? I mean this compound: O=C1C=C(O)C(=O)c2ccccc21
69

Which inhibition is listed for CCC(C(C)=O)C(C)=O ?
85

Given the compound Nc1ccc(C(=O)O)c(O)c1 , what is its reported inhibition?
55

Record request: inhibition value, item Oc1ccc(Cl)c2cccnc12
0

Please look up its inhibition: O=C(O)c1ncccc1O
87

Give the measured inhibition of CC(=O)C(C)C(C)=O .
67

Quick one: inhibition of CC(=O)C1CCCC1=O (centres undefined) ?
83

Sample Cc1cc(O)nc(C)n1 — what was its inhibition?
-10

What value of inhibition has been reported for the following compound? CC(=O)C(Cl)C(C)=O
86

Return reported inhibition; argument: O=C(O)c1cccc(=O)n1O
94

Need inhibition of O=c1cccccc1O , thanks.
90

# inhibition lookup, item O=C(O)c1cccc(Br)n1
90

If you can, please state the reported inhibition value of Oc1coccc1=S .
97

Fill in: inhibition of Cc1nc(O)cc(O)n1 is ___
12

Tell me the measured inhibition of Cc1ccc(S(N)(=O)=O)cc1 , please.
70

Give its inhibition value. Item: O=C(O)c1ccccc1O
97

Please give the measured inhibition for this compound: O=C(O)c1c(O)cccc1O
95

====

- Experimental target: Neutrophil collagenase (Homo sapiens) (UniProt P22894)
- Sequence (P22894 101-467 limits assumed): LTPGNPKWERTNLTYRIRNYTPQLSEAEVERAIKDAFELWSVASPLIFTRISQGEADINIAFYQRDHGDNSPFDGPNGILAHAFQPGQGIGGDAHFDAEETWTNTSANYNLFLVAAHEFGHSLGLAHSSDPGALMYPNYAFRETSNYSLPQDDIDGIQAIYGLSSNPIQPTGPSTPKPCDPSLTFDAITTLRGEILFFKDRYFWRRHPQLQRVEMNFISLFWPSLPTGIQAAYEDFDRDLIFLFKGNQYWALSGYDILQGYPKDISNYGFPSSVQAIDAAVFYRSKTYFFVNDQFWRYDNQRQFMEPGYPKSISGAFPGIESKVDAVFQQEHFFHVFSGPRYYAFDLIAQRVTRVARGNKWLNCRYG
- Cond: at 1 mM
Label Y when inhibition is at or above 60%; otherwise label N.

Sample answers from the record:
Compound smiles | Class assignment
Oc1ncccn1 | Y
[O-][n+]1cccc2cccc(O)c21 | Y
CCC(C(C)=O)C(C)=O | N
Oc1ccccc1-c1nc2ccccc2o1 | N
Cn1cccc(O)c1=O | N

Say whether CC(=O)C(Cl)C(C)=O shows inhibition of 60% or more.
N

====

# maps each entry to its inhibition
- Experimental target: Neutrophil collagenase (Homo sapiens)
- Cond: at 1 mM
Provide only the numeric value, understood in %.

Which inhibition is reported for this compound? Cc1ccc2cccc(O)c2n1
63

May I ask what inhibition has been recorded for O=C(O)c1ccc2cccc(O)c2n1 ?
88

Report inhibition for OCc1ccnc(-c2cc(CO)ccn2)c1 please.
100

====

- Experimental target: Nitric oxide synthase, inducible (Mus musculus);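 also: recombinant enzyme, activity read out colorimetrically after 40 min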
- Cond: at 1 mM
Quick list: inhibition per entry.

Compound smiles | inhibition
O=C(O)c1cccc(C(=O)O)n1 | 20%
Nc1ccc2cccc(O)c2n1 | 38%
OCc1ccnc(-c2cc(CO)ccn2)c1 | 21%
O=C(O)c1cc(O)ccc1O | 24%
CCC(C(C)=O)C(C)=O | -1%

Turning now to a further record.
Given CCc1c(O)c(=O)ccn1C , state its recorded inhibition.
1%

====

The compounds listed here are annotated with their inhibition.
- Experimental target: UniProtKB P09917
- Sequence (P09917 whole entry): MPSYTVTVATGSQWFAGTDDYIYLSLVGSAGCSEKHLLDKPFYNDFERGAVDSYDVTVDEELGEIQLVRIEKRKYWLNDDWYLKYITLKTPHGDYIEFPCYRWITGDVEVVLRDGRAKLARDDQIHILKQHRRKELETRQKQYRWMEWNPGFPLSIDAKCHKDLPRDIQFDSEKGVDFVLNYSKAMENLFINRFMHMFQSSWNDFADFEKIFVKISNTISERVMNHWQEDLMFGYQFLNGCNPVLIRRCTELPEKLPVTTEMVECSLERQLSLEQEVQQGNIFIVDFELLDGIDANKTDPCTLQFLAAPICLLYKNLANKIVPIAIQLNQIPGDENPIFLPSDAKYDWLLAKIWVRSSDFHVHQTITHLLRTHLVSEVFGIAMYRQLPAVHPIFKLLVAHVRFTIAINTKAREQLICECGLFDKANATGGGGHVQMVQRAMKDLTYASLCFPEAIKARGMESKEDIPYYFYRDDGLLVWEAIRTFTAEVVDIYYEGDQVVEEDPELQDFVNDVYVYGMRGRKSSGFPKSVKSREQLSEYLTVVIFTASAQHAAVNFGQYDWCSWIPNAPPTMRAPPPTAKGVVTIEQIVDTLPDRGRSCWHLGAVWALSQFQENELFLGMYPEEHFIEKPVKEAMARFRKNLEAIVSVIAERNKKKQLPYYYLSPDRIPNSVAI
- Assay text: Inhibition of human recombinant 5-lipoxygenase at 1 mM after 10 mins by fluorescence assay
Give just the number in %; leave the unit off.

Compound smiles | inhibition (%)
Oc1coccc1=S | 94
Cc1nc(O)cc(O)n1 | 62
Cn1cccc(O)c1=O | 88
Oc1nccc(S)n1 | 46
CC(=O)C(Cl)C(C)=O | 52
Cc1occ(O)c(=O)c1C(=O)O | 80
Cc1cc(O)nc(O)n1 | 24
O=C(O)c1ccccn1 | 16
Cc1cc(=O)c(O)co1 | 80
O=C(O)c1cccnc1C(=O)O | 30

Quick check: inhibition of O=c1ccc2ccccc2[nH]1 ?
22

// returns reported inhibition for input Oc1ccc2ccccc2c1O
69

Requested read-out: inhibition. Entry: O=c1cccccc1O
-3

Quick one: inhibition of Nc1cccc(C(=O)O)c1O ?
72

Item O=c1ccocc1O has what recorded inhibition?
81

Query (compound): O=C(O)c1cccc(C(=O)O)n1 ; field requested: inhibition
31

Form field: reported inhibition of O=C(O)c1ccc(F)cc1O
31

Data request, read-out inhibition, for CCc1c(O)c(=O)ccn1C
78

For the compound shown here, O=C(O)c1nc(Cl)ccc1Cl , give the reported inhibition.
27

Requested field: inhibition. Item: O=C(O)c1cc(F)ccc1O
49

Given the entry OCc1ccnc(-c2cc(CO)ccn2)c1 , report its measured inhibition.
41

I would be grateful if you could share the reported inhibition for O=C(O)c1ccccc1O .
20

Reported inhibition for Nc1cc(=O)nc(N)[nH]1 : what is it?
65

Please look up its inhibition: Oc1cccnc1O
90

Given the compound [O-][n+]1ccccc1S , what is its reported inhibition?
70

Consider the compound O=c1cc(CCl)occ1O and give its measured inhibition.
87

Consider the compound shown here: Cc1nc(O)nc(O)c1C What is its recorded inhibition?
33

Return reported inhibition; argument: Cc1cccc(C(=O)O)c1O
22

Item under review: Cn1cccc(O)c1=S . Reported inhibition?
93

====

- Experimental target: 72 kDa type IV collagenase (Homo sapiens, UniProt P08253);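 also: recombinant human enzyme, inhibition read after a 30 min incubation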
- Sequence (P08253 110-660 limits assumed): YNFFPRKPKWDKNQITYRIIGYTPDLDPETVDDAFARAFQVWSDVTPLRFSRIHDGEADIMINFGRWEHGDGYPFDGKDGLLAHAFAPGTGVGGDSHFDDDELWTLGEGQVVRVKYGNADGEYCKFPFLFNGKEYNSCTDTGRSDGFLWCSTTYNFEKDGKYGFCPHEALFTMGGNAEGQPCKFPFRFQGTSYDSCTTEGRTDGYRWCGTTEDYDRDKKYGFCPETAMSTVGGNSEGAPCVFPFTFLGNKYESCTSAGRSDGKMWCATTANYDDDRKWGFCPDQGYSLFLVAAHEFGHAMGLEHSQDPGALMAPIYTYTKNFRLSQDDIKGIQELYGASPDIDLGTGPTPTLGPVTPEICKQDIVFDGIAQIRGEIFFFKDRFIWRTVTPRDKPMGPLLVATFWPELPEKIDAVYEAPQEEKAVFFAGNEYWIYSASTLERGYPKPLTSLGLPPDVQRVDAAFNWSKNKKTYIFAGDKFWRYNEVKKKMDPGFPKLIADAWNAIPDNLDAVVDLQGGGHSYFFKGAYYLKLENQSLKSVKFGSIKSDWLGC
- Cond: at 1 mM
Parameter measured: inhibition (%)
Just the number in %, nothing appended.

Worked set:
Molecule | Parameter measured | Quantitative result
CC(=O)NO [ACETOHYDROXAMIC ACID] | inhibition | 4
CS(=O)(=O)Nc1cccc2cccnc12 | inhibition | 84

In the following, a different molecule is considered.
Entry under review: Oc1ncccn1 . Reported inhibition?
24

====

- Experimental target: Neutrophil collagenase (Homo sapiens) (UniProt P22894);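 also: recombinant human MMP8 enzyme, percent inhibition read after 30 min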
- Cond: at 1 mM
Parameter measured: inhibition (%)
Supply the numeric figure in %, leaving out any unit text.

Examples with answers:
Compound | Value units | inhibition
CCc1occc(=O)c1O | % | 34
CCc1c(O)c(=S)ccn1CC | % | 94
O=C(O)c1cccc(C(=O)O)n1 | % | 17
CCCCc1ccc(C(=O)O)nc1 | % | 47

In the following, a different compound is considered.
Consider the compound O=c1ccc2ccccc2[nH]1 and give its measured inhibition.
33

====

- Experimental target: Stromelysin-1 (Homo sapiens) (UniProt P08254)
- Sequence (P08254 100-477 limits assumed): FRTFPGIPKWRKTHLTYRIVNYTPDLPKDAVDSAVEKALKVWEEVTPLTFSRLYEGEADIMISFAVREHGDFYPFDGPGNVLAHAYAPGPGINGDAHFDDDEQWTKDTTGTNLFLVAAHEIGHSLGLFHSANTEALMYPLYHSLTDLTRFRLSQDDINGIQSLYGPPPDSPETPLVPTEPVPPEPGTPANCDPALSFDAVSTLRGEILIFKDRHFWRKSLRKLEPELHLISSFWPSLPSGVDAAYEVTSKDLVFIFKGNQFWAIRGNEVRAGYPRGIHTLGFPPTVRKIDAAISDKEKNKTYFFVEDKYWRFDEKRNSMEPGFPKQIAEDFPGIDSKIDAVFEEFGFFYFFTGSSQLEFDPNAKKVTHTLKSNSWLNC
- Cond: at 1 mM
Reported values of inhibition for individual entries
Numbers only; they are read as %.

Answered examples (5):
Compound smiles | Value units | inhibition
Cc1cc(=O)c(O)c(CO)o1 | % | 47
O=C(O)c1cccc[n+]1[O-] | % | 18
Cc1ccc(S(N)(=O)=O)cc1 | % | -5
Cc1occc(=O)c1O | % | 34
O=C(O)c1cccc(Br)n1 | % | 18

Given the compound Nc1cc(=O)nc(N)[nH]1 , what is its reported inhibition?
14

Quick check: inhibition of Cc1c(O)c(=S)ccn1C ?
99

Given the entry Oc1cccnc1O , report its measured inhibition.
-7

// returns reported inhibition for input O=C(O)c1ccc(C(=O)O)nc1
91

So what's the measured inhibition for this one? Cn1cccc(O)c1=S
90

Please look up its inhibition: Nc1ccc2cccc(O)c2n1
87

What value of measured inhibition is listed for Oc1ncccn1 ?
49

Recorded inhibition for Cc1nc(O)nc(O)c1C , please?
10

====

# reported inhibition; entries follow
- Experimental target: UniProt:P14780
- Sequence (P14780 whole entry): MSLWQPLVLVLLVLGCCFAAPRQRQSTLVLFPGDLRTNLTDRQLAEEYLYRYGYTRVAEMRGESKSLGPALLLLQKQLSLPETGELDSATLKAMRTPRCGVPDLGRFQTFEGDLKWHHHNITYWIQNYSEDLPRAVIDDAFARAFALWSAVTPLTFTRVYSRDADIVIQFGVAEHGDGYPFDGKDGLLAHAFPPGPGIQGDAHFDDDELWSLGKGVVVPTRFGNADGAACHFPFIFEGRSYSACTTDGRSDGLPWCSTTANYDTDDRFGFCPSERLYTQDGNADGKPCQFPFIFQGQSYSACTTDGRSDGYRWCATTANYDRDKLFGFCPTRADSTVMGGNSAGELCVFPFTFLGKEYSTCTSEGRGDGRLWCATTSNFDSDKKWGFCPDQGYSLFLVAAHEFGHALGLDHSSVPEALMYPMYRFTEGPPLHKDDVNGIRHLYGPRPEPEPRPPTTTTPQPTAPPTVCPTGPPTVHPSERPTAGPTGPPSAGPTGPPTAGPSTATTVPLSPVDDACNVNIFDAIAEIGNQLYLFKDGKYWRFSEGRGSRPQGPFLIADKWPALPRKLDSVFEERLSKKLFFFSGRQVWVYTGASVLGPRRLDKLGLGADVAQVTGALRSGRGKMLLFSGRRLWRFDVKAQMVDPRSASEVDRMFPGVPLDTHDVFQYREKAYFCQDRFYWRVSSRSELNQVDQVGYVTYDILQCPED
- Cond: at 1 mM
Respond numerically; units are % and should not be typed.

Worked set:
Compound smiles | inhibition [%]
Cc1ccc(C(=O)O)c(O)c1 | 10
CCn1ccc(=O)c(O)c1C | 10

Item under review: Cc1cc(O)nc(O)n1 . Reported inhibition?
1

Entry Cc1nc(O)nc(O)c1C has what inhibition?
-4

Entry under review: CCc1c(O)c(=S)ccn1CC . Reported inhibition?
100

May I ask what inhibition has been recorded for Oc1nccc(S)n1 ?
90

Item O=C(O)c1ccc(O)c(O)c1 has what recorded inhibition?
-1

Look at this compound and give its reported inhibition. Cc1ccc(S(N)(=O)=O)cc1
-7

Which measured inhibition value corresponds to O=c1cccccc1O ?
91

For the compound shown here, Nc1cccc2cccnc12 , give the reported inhibition.
57

Quick one: inhibition for Oc1ncccn1 ?
51

Return reported inhibition; argument: O=C(O)c1nccc2ccccc12
26

Reported inhibition for Oc1ccccc1-c1nc2ccccc2s1 : what is it?
3

Request the reported inhibition associated with CCCCc1ccc(C(=O)O)nc1
18

// query inhibition value for entry O=C(O)c1nc(Cl)ccc1Cl
18

Fill in: inhibition of O=C(O)c1cccc[n+]1[O-] is ___
8
